- measurementTarget: human recombinant DGK ξ (Homo sapiens (Human), UniProt Q13574)
- Sequence (Q13574 whole entry): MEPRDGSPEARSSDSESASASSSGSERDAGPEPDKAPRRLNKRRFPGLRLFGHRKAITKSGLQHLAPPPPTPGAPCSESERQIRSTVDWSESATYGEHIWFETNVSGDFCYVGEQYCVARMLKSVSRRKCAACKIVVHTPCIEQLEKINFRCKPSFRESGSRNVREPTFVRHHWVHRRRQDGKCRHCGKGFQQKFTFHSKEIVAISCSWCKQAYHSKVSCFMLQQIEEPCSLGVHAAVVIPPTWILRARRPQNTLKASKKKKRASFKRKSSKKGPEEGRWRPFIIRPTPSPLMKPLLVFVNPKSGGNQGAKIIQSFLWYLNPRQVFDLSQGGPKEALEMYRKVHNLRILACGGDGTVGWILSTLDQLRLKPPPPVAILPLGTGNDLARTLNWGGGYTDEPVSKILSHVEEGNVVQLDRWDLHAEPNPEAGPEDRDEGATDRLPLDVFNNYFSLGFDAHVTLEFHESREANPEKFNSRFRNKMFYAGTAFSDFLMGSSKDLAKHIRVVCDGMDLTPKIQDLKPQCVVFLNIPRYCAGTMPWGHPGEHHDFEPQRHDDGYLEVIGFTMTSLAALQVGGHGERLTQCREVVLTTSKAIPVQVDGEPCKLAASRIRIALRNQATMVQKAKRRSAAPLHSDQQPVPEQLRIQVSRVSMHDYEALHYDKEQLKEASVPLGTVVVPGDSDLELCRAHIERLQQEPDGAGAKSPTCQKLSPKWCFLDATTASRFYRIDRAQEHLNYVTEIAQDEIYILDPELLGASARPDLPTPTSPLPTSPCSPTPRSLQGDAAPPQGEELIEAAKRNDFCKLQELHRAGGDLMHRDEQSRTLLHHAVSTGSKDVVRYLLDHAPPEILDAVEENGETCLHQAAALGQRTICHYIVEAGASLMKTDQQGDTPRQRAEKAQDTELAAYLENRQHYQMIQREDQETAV
- measurementProtocol: Evaluation of DGK ξ inhibitory effect (ADP-Glo Kinase Assay)
- Assay type: biochemical
valueType: IC50 (nM)
Numeric only. Scale: nM

Some solved entries appear below for comparison.
Asked: What value of IC50 on human recombinant DGK ξ (Homo sapiens (Human), UniProt Q13574) does NC[C@@H]1CCCN(c2c(NC(=O)c3csc(-c4ccnnc4)n3)ccc(OC3CCC3)c2C(F)(F)F)C1 have?
Given back: 13

Asked: What value of IC50 on human recombinant DGK ξ (Homo sapiens (Human), UniProt Q13574) does NCC[C@H]1CCCN1c1c(NC(=O)c2csc(-c3ccnnc3)n2)ccc(Oc2ccccc2)c1C(F)(F)F have?
Given back: 24

Asked: What value of IC50 on human recombinant DGK ξ (Homo sapiens (Human), UniProt Q13574) does NC[C@H]1CCCN1c1c(NC(=O)c2csc(-c3ccnnc3)n2)ccc(Oc2ccccc2)c1C(F)(F)F [Example 87] have?
Given back: 20

// below: IC50 requested for another compound
Asked: What value of IC50 on human recombinant DGK ξ (Homo sapiens (Human), UniProt Q13574) does CNC[C@@H]1CCCN(c2c(NC(=O)c3csc(-c4ccnnc4)n3)ccc(Oc3cccc(F)c3)c2C(F)(F)F)C1 have?
Given back: 16
